- protocol summary: Apparent intrinsic clearance in Sprague-Dawley rat hepatocytes assessed per 10^6 cells at 0.1 to 10 uM up to 90 mins by conventional assay
- Assay type: ADME, cell-based, Hepatocyte
- reported conditions: read-out: CLH(app)
Entries and their log10 hepatocyte CLint at up to 10 µM values follow.
Please be aware that the numbers have been log10-transformed from hepatocyte CLint at up to 10 µM in µL/min/1e6 cells.

Solved entries:
CCOc1cc(CC(=O)N[C@@H](CC(C)C)c2ccccc2N2CCCCC2)ccc1C(=O)O [REPAGLINIDE]: 1.70
CC(C)c1nc(N(C)S(C)(=O)=O)nc(-c2ccc(F)cc2)c1/C=C/[C@@H](O)C[C@@H](O)CC(=O)O: 0.52
O=C(O)C[C@H](O)C[C@H](O)/C=C/c1c(C2CC2)nc2ccccc2c1-c1ccc(F)cc1: 0.85
CC[C@H]1OC(=O)[C@H](C)[C@@H](O[C@H]2C[C@@](C)(OC)[C@@H](O)[C@H](C)O2)[C@H](C)[C@@H](O[C@@H]2O[C@H](C)C[C@H](N(C)C)[C@H]2O)[C@](C)(O)C[C@@H](C)C(=O)[C@H](C)[C@@H](O)[C@]1(C)O: 1.41

Please examine the following record next.
Recorded result, CC[C@H]1OC(=O)[C@H](C)[C@@H](O[C@H]2C[C@@](C)(OC)[C@@H](O)[C@H](C)O2)[C@H](C)[C@@H](O[C@@H]2O[C@H](C)C[C@H](N(C)C)[C@H]2O)[C@](C)(OC)C[C@@H](C)C(=O)[C@H](C)[C@@H](O)[C@]1(C)O , log10 hepatocyte CLint at up to 10 µM: 1.66
